// data source = patent US11753408B2

- TESTED ON: mTOR (Homo sapiens)
- ASSAY DETAILS: mTOR activity (no method described)
- Type: biochemical
EXPERIMENTAL READOUT: mTOR (µM)
// units = µM; emit number, no label

Reference set (5 entries):
Bench note: what mTOR did `CN(CCNC(=O)c1ccc(-n2c(=O)ccc3cnc4ccc(-c5ccc(Cl)cc5)cc4c32)cc1)c1ccccc1` show?
50

Bench note: what mTOR did `O=C(c1ccc(-n2c(=O)ccc3cnc4ccc(-c5ccc(Cl)c(C(=O)N6CCOCC6)c5)cc4c32)cc1)N1CCOCC1` show?
21.22

Bench note: what mTOR did CC1CC1NC(=O)c1ccc(-n2c(=O)ccc3cnc4ccc(-c5ccc(N)nc5)cc4c32)cc1 (centres unmarked) show?
0.1505

Bench note: what mTOR did `Cc1cc(N2CC(N)C2)c(C#N)cc1-n1c(=O)n(C)c2cnc3ccc(-c4ccc(F)cc4)cc3c21` show?
11

Bench note: what mTOR did `COc1cc(C(=O)NCCN2CCCCC2)ccc1-n1c(=O)ccc2cnc3ccc(-c4ccc(Cl)cc4)cc3c21` show?
8.776

Would you kindly look at the next entry?
Bench note: what mTOR did `NC1(c2ccc(-c3ccc4ncc5ccc(=O)n(-c6ccc(C(=O)N7CCOCC7)cc6)c5c4c3)cc2)CC1` show?
5.312

----------
- TESTED ON: mTOR (Homo sapiens)
- ASSAY DETAILS: mTOR activity (no method described)
- Type: biochemical
The entries below come with measured mTOR values attached.
// units = nM; emit number, no label

Bench note: what mTOR did `CN(C)C(=O)c1ccc(-n2c(=O)ccc3cnc4ccc(-c5ccc(Cl)cc5)cc4c32)cc1` show?
1531

Bench note: what mTOR did `CN(C)CC#Cc1ccc2ncc3c(c2c1)n(-c1cccc(C#N)c1)c(=O)n3C` show?
15140

Bench note: what mTOR did `CNC(=O)c1ccc(-n2c(=O)ccc3cnc4ccc(-c5ccc(N)nc5)cc4c32)cc1` show?
28.21

Bench note: what mTOR did `Cn1c(=O)n(-c2cccc(C#N)c2)c2c3cc(-c4ccc(Cl)c(O)c4)ccc3ncc21` show?
516.2

Bench note: what mTOR did `COc1cc(C(=O)NC2CC2)ccc1-n1c(=O)ccc2cnc3ccc(-c4ccc(Cl)cc4)cc3c21` show?
4337

Bench note: what mTOR did `Cn1c(=O)n(-c2cccc(C#N)c2)c2c3cc(-c4cccc(C#N)c4)ccc3ncc21` show?
1271

Bench note: what mTOR did `O=C(c1ccc(-n2c(=O)ccc3cnc4ccc(-c5ccc(Cl)cc5)nc4c32)cc1)N1CCOCC1` show?
3720

Bench note: what mTOR did `O=C(c1ccc(-n2c(=O)ccc3cnc4ccc(-c5ccc(Cl)cc5)cc4c32)cc1)N1CCC1` show?
1165

Continuing:
Bench note: what mTOR did `O=C(NC1CCC1)c1ccc(-n2c(=O)ccc3cnc4ccc(-c5ccc(Cl)cc5)cc4c32)cc1` show?
765.7

Bench note: what mTOR did `Cn1c(=O)n(-c2cccc(C#N)c2)c2c3cc(-c4ccc5[nH]cnc5c4)ccc3ncc21` show?
630.3

Bench note: what mTOR did `COc1cc(C(=O)NCCCN2CCS(=O)(=O)CC2)ccc1-n1c(=O)ccc2cnc3ccc(-c4ccc(Cl)cc4)cc3c21` show?
8446

Bench note: what mTOR did `O=C(NC1CC1)c1ccc(-n2c(=O)ccc3cnc4ccc(-c5ccc(Cl)c(O)c5)cc4c32)cc1` show?
257.1

Bench note: what mTOR did `CN(C)C(=O)c1cc(-c2ccc3ncc4ccc(=O)n(-c5ccc(C(=O)N6CCOCC6)cc5)c4c3c2)ccc1Cl` show?
5732

Bench note: what mTOR did `O=C(NCCN1CCCC1=O)c1ccc(-n2c(=O)ccc3cnc4ccc(-c5ccc(Cl)cc5)cc4c32)cc1` show?
3824

Bench note: what mTOR did `Cn1c(=O)n(-c2cccc(C#N)c2)c2c3cc(-c4ccc(N)cc4)ccc3ncc21` show?
714.1

----------
- TESTED ON: mTOR (Homo sapiens)
- ASSAY DETAILS: mTOR activity (no method described)
- Type: biochemical
EXPERIMENTAL READOUT: mTOR (µM)
// units = µM; emit number, no label

Reference set (3 entries):
Bench note: what mTOR did `CCC(=O)N(CC)CCNC(=O)c1ccc(-n2c(=O)ccc3cnc4ccc(-c5ccc(Cl)cc5)cc4c32)cc1` show?
4.727

Bench note: what mTOR did `CN(C)CCNC(=O)c1ccc(-n2c(=O)ccc3cnc4ccc(-c5ccc(Cl)cc5)cc4c32)cc1` show?
19.84

Bench note: what mTOR did `Nc1nc2ccc(-c3ccc(Cl)cc3)cc2c2c1ccc(=O)n2-c1ccc(C(=O)N2CCOCC2)cc1` show?
0.78

Would you kindly look at the next entry?
Bench note: what mTOR did `O=C(NCCN1CCC1)c1ccc(-n2c(=O)ccc3cnc4ccc(-c5ccc(Cl)cc5)cc4c32)cc1` show?
1.506

----------
- ASSAY DETAILS: PAMPA permeability
- Assay type: in vitro ADME
- DETAILS: PAMPA
EXPERIMENTAL READOUT: PAMPA Permeability (×10^6 cm/s)

Bench note: what PAMPA Permeability (×10^6 cm/s) did Cc1cc(N2CCNCC2)c(C#N)cc1-n1c(=O)ccc2cnc3ccc(-c4ccc(Cl)cc4)cc3c21 [Compound 11] show?
21 ×10^6 cm/s

Continuing:
Bench note: what PAMPA Permeability (×10^6 cm/s) did N#Cc1cccc(-n2c(=O)ccc3cnc4ccc(-c5ccc(N)nc5)cc4c32)c1 [Compound 20] show?
505.6 ×10^6 cm/s

Bench note: what PAMPA Permeability (×10^6 cm/s) did CS(=O)(=O)c1ccc(-n2c(=O)ccc3cnc4ccc(-c5ccc(Cl)c(N)c5)cc4c32)cc1C(F)(F)F [Compound 45] show?
144.4 ×10^6 cm/s

Bench note: what PAMPA Permeability (×10^6 cm/s) did COC(=O)c1cc(-c2ccc3ncc4ccc(=O)n(-c5ccc(S(C)(=O)=O)cc5)c4c3c2)ccc1Cl [Compound 49] show?
235.8 ×10^6 cm/s

Bench note: what PAMPA Permeability (×10^6 cm/s) did C[S+]([O-])c1ccc(-n2c(=O)ccc3cnc4ccc(-c5ccc(Cl)cc5)cc4c32)cc1 (stereo not drawn) [Compound 59] show?
<1.00 ×10^6 cm/s

Bench note: what PAMPA Permeability (×10^6 cm/s) did CN(C)Cc1ccc(-c2ccc3ncc4ccc(=O)n(-c5ccc6c(c5)CN(C5CC5)C6=O)c4c3c2)cc1 [Compound 354] show?
292.3 ×10^6 cm/s

Bench note: what PAMPA Permeability (×10^6 cm/s) did CN(C)Cc1ccc(-c2ccc3ncc4ccc(=O)n(-c5ccc6c(c5)CCNC6=O)c4c3c2)cc1 [Compound 342] show?
12.72 ×10^6 cm/s

Bench note: what PAMPA Permeability (×10^6 cm/s) did CN(C)CCc1ccc(-c2ccc3ncc4ccc(=O)n(-c5ccc(S(C)(=O)=O)cc5)c4c3c2)cc1 [Compound 68] show?
148.7 ×10^6 cm/s

Bench note: what PAMPA Permeability (×10^6 cm/s) did CN1Cc2cc(-n3c(=O)ccc4cnc5ccc(-c6ccc(F)cc6)cc5c43)ccc2C1=O [Compound 360] show?
635.05 ×10^6 cm/s

Bench note: what PAMPA Permeability (×10^6 cm/s) did CN(C)Cc1ccc(-c2ccc3ncc4ccc(=O)n(-c5ccc6c(c5)C(=O)N(C)C6=O)c4c3c2)cc1 [Compound 352] show?
343.6 ×10^6 cm/s

Bench note: what PAMPA Permeability (×10^6 cm/s) did CN(C)S(=O)(=O)c1ccc(-n2c(=O)ccc3cnc4ccc(-c5ccc(Cl)cc5)cc4c32)cc1 [Compound 42] show?
97.4 ×10^6 cm/s

Bench note: what PAMPA Permeability (×10^6 cm/s) did CN(C)Cc1ccc(-c2ccc3ncc4ccc(=O)n(-c5ccc(N6CCOCC6)c(C#N)c5)c4c3c2)cc1 [Compound 5] show?
725.27 ×10^6 cm/s

Bench note: what PAMPA Permeability (×10^6 cm/s) did O=C(O)CN1Cc2cc(-n3c(=O)ccc4cnc5ccc(-c6ccc(Cl)cc6)cc5c43)ccc2C1=O [Compound 365] show?
<1.8 ×10^6 cm/s

Bench note: what PAMPA Permeability (×10^6 cm/s) did Nc1ccc(-c2ccc3ncc4ccc(=O)n(-c5ccc6c(c5)CC(=O)N6)c4c3c2)cn1 [Compound 389] show?
<9.7 ×10^6 cm/s

Bench note: what PAMPA Permeability (×10^6 cm/s) did NCCCN1Cc2cc(-n3c(=O)ccc4cnc5ccc(-c6ccc(Cl)cc6)cc5c43)ccc2C1=O [Compound 343] show?
<2.5 ×10^6 cm/s

----------
- ASSAY DETAILS: PAMPA permeability
- Assay type: in vitro ADME
- DETAILS: PAMPA
EXPERIMENTAL READOUT: PAMPA Permeability (×10^6 cm/s)

Reference set (2 entries):
Bench note: what PAMPA Permeability (×10^6 cm/s) did `CCN(CC)Cc1ccc(-c2ccc3ncc4ccc(=O)n(-c5cc(C#N)ccc5C)c4c3c2)cc1` show?
1492.3 ×10^6 cm/s

Bench note: what PAMPA Permeability (×10^6 cm/s) did `O=C1NCc2cc(-n3c(=O)ccc4cnc5ccc(-c6ccc(OC7CCNCC7)cc6)cc5c43)ccc21` show?
<10.7 ×10^6 cm/s

Continuing:
Bench note: what PAMPA Permeability (×10^6 cm/s) did `CS(=O)(=O)c1ccc(-n2c(=O)ccc3cnc4ccc(-c5ccc(Cl)c(C(=O)N6CCOCC6)c5)cc4c32)cc1` show?
200.8 ×10^6 cm/s

Bench note: what PAMPA Permeability (×10^6 cm/s) did Cc1cc(N2CCNCC2)c(C#N)cc1-n1c(=O)ccc2cnc3ccc(-c4ccc(Cl)cc4)cc3c21 [Compound 4] show?
21 ×10^6 cm/s

Bench note: what PAMPA Permeability (×10^6 cm/s) did `CN(C)Cc1ccc(-c2ccc3ncc4ccc(=O)n(-c5ccc6c(c5)C(=O)NC6)c4c3c2)cc1` show?
2.5 ×10^6 cm/s

Bench note: what PAMPA Permeability (×10^6 cm/s) did `CCNC(=O)c1cc(-c2ccc3ncc4ccc(=O)n(-c5ccc(S(C)(=O)=O)cc5)c4c3c2)ccc1Cl` show?
115.9 ×10^6 cm/s

Bench note: what PAMPA Permeability (×10^6 cm/s) did `COc1cc(-c2ccc3ncc4ccc(=O)n(-c5ccc(S(C)(=O)=O)cc5)c4c3c2)ccc1Cl` show?
40.7 ×10^6 cm/s

Bench note: what PAMPA Permeability (×10^6 cm/s) did `N#Cc1cc(-n2c(=O)ccc3cnc4ccc(-c5ccc(N)nc5)cc4c32)ccc1N1CCOCC1` show?
58.15 ×10^6 cm/s

Bench note: what PAMPA Permeability (×10^6 cm/s) did `CC(C)(C)OC(=O)CN1Cc2cc(-n3c(=O)ccc4cnc5ccc(-c6ccc(Cl)cc6)cc5c43)ccc2C1=O` show?
75.9 ×10^6 cm/s

Bench note: what PAMPA Permeability (×10^6 cm/s) did `CS(=O)(=O)c1ccc(-n2c(=O)ccc3cnc4ccc(-c5ccc(N)nc5)cc4c32)cc1Cl` show?
<1 ×10^6 cm/s

Bench note: what PAMPA Permeability (×10^6 cm/s) did `Cc1ccc(C#N)cc1-n1c(=O)ccc2cnc3ccc(-c4ccc(N)nc4)cc3c21` show?
606 ×10^6 cm/s
